For each entry below, report its selectivity ratio value.
# EXPERIMENT_SUMMARY: Selectivity index, ratio of IC50 for human NCM460 cells to IC50 for human HT-29 cells
# Type: toxicity
# MEASUREMENT_CONDITIONS: NCM460 cells versus HT-29 cells, read-out: Ratio IC50

>>> reported_result("C=C1C(=O)O[C@H]2[C@H]1CC/C(COC(=O)c1ccc3nccc(Br)c3c1)=C/CC[C@@]1(C)O[C@@H]21")
3.06

# input for lookup
Measured selectivity ratio, C=C1C(=O)O[C@@H]2C3O[C@]3(C)CC/C=C(\C)CC[C@@H]12 (some centres not stated) : 0.38

----------
For each entry below, report its pIC50 value.
# System: U2OS
# EXPERIMENT_SUMMARY: Cytotoxicity against human U2OS cells assessed as reduction in cell viability incubated for 48 hrs by MTT assay
# Type: functional, cell-based
Answers are plain numbers, as −log10 of the molar value.

Below is a list of molecules. For each, state its recorded pIC50.
1. C=C1C(=O)O[C@H]2[C@H]1CC/C(COC(=O)c1n[nH]c(=O)c3ccccc13)=C/CC[C@@]1(C)O[C@@H]21
2. C=C1C(=O)O[C@H]2[C@H]1CC[C@@]1(COC(=O)c3ccc4ncccc4c3)O[C@@H]1CC[C@@]1(C)O[C@@H]21

output:
5.11
5.19

Below is a list of molecules. For each, state its recorded pIC50.
1. CO[C@@]12[C@H](COC(N)=O)C3=C(C(=O)C(C)=C(N)C3=O)N1C[C@@H]1N[C@@H]12
2. C=C1C(=O)O[C@H]2[C@H]1CC/C(COC(=O)CCn1cnc3ccccc3c1=O)=C/CC[C@@]1(C)O[C@@H]21
3. C=C1C(=O)O[C@H]2[C@H]1CC/C(COC(=O)c1cccc3cccnc13)=C/CC[C@@]1(C)O[C@@H]21
4. C=C1C(=O)O[C@H]2[C@H]1CC/C(COC(=O)c1ccc3nc(Cl)ccc3c1)=C/CC[C@@]1(C)O[C@@H]21
5. C/C1=C\CC[C@@]2(C)O[C@H]2[C@H]2OC(=O)/C(=C\c3ccc4ncncc4c3)[C@@H]2CC1

output:
1: 5.07; 2: 5.11; 3: 5.45; 4: 5.61; 5: 4.14

----------
# System: U2OS
# EXPERIMENT_SUMMARY: Cytotoxicity against human U2OS cells assessed as reduction in cell viability incubated for 48 hrs by MTT assay
# Type: functional, cell-based
QUANTITY_MEASURED: IC50 (µM)
One number for each entry, in µM.

>>> reported_result("C=C1C(=O)O[C@H]2[C@H]1CC/C(COC(=O)c1ccc3ncccc3c1)=C/CC[C@@]1(C)O[C@@H]21")
3.11
>>> reported_result("C=C1C(=O)O[C@H]2[C@H]1CC/C(COC(=O)CCc1n[nH]c(=O)c3ccccc13)=C/CC[C@@]1(C)O[C@@H]21")
6.03
>>> reported_result("C=C1C(=O)O[C@H]2[C@H]1CC/C(COC(=O)c1ccc3ncncc3c1)=C/CC[C@@]1(C)O[C@@H]21")
13.9
>>> reported_result("C/C1=C\\CC[C@@]2(C)O[C@H]2[C@H]2OC(=O)C(CN3CCCN(C(=O)c4ccc5ccccc5n4)CC3)[C@@H]2CC1 (stereo not given in full)")
11.1

# input for lookup
Measured IC50, C=C1C(=O)O[C@H]2[C@H]1CC/C(C(=O)CN1CCN(C(=O)c3ccc4ccccc4n3)CC1)=C/CC[C@@]1(C)O[C@@H]21 : 13
